The measurements presented in this section are drawn from ChEMBL document CHEMBL3877310.

- TESTED ON: Methionine aminopeptidase 2 (Homo sapiens)
- Sequence (P50579 whole entry): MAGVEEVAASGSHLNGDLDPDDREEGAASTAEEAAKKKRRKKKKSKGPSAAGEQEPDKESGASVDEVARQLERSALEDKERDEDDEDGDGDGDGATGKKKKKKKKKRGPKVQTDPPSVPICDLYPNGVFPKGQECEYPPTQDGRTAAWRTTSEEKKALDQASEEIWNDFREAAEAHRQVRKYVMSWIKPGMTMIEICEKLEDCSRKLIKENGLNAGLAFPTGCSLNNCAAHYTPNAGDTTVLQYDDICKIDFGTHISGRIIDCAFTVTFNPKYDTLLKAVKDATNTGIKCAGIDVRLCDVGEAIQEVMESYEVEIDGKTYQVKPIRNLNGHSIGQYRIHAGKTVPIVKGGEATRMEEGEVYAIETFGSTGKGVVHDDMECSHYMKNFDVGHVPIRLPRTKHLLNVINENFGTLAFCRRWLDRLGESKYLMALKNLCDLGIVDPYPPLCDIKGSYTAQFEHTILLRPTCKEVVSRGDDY
- PROTOCOL DESCRIPTION: Inhibition of recombinant full length human N-terminal GST/His6-tagged methionine aminopeptidase 2 expressed in baculovirus infected sf9 cells using methionylprolyl-p-nitroanilide as substrate preincubated for 20 mins followed by substrate addition measured for 20 mins in presence of MnCl2 by proline aminopeptidase coupled enzyme assay
OBSERVABLE: pIC50
The value called pIC50 is obtained by taking minus log10 of the concentration in mol/L.

Please give measured pIC50 of the following entry: Oc1cccc2cccnc12 [OXYQUINOLINE]
5.90
